Origin of the recorded values: patent US11912693B2

Biological target: human sphingosine-1-phosphate receptor 1 (S1P1) (Homo sapiens (Human), UniProt P21453)
Test: β-Arrestin2 recruitment assay (PathHunter), S1P1 CHO-K1 cells
Format: cell-based
Conditions: β-arrestin2 recruitment, S1P1 CHO-K1 cells
Sequence (P21453 whole entry, looked up): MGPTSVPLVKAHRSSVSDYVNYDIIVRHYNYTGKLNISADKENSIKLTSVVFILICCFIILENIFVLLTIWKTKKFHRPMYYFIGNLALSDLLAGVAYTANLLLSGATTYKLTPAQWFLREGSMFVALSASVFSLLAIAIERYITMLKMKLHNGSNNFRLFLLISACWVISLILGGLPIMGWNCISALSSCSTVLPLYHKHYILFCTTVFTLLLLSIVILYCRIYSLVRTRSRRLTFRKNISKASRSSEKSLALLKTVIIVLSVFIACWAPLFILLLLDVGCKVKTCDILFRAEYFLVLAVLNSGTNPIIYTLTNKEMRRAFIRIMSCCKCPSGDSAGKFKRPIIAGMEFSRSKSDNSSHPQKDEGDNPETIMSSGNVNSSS
Sequence (P32121 whole entry partner, looked up): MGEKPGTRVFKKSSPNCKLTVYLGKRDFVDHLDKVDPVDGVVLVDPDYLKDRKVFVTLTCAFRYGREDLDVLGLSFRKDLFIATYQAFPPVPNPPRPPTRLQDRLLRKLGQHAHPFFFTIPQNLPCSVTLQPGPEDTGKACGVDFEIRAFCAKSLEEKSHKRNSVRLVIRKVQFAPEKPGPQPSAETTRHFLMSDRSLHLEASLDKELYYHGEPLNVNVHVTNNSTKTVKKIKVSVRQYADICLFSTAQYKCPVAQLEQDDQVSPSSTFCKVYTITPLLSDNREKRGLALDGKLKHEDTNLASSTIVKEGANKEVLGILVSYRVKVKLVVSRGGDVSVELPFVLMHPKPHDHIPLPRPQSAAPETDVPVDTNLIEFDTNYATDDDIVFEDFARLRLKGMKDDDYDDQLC
measureName: hS1P1 B-arrestin2 pEC50

Record lookup: for human sphingosine-1-phosphate receptor 1 (S1P1) (Homo sapiens (Human), UniProt P21453), what hS1P1 B-arrestin2 pEC50 belongs to CCC1(CC)CC(=O)c2cc(-c3noc(-c4cccnc4)n3)ccc2O1 ?
>5

Could you do the same for N#Cc1cc(-c2nnc(-c3ccc4[nH]ncc4c3)o2)ccc1NCC1CC1 , please?
>5

Could you do the same for Cc1ccccc1-c1noc(-c2ccc3c(c2)nnn3C2CCCCC2)n1 , please?
>5

Could you do the same for CC(C)Cn1nnc2cc(-c3nc4c(Cl)cccc4o3)ccc21 , please?
>5

Could you do the same for CC(C)n1nnc2cc(-c3nc4c(o3)-c3ccccc3CC4)ccc21 , please?
<5

Could you do the same for CC(C)n1nnc2cc(-c3nnc(-c4ccccc4O)s3)ccc21 , please?
>5

Could you do the same for CC(C)n1nnc2cc(-c3nsc(-c4ccccc4O)n3)ccc21 , please?
>5

Could you do the same for CC(C)n1nnc2cc(-c3nc(-c4ccccc4)no3)ccc21 , please?
>5

Could you do the same for COc1ccccc1-c1nsc(-c2ccc3c(c2)nnn3C(C)C)n1 , please?
<5

Could you do the same for CCC1(CC)CC(=O)c2cc(-c3nc(-c4ccnc(C)c4)no3)ccc2O1 , please?
>5

Could you do the same for CC(C)n1nnc2cc(-c3noc(-c4ccccc4N)n3)ccc21 , please?
>5

Could you do the same for CCCCC1CC(=O)c2ccc(-c3nc(-c4cccnc4)no3)cc2O1 (stereo not drawn) , please?
<5

Could you do the same for Cc1cccc2nc(-c3ccc4c(c3)nnn4C(C)C)oc12 , please?
<5

Could you do the same for Cc1ccccc1-c1noc(-c2ccc3c(c2)nnn3C(C)(C)C)n1 , please?
>5

Could you do the same for CC(C)n1nnc2cc(-c3noc(-c4cccc5c4CCC5O)n3)ccc21 (stereo not drawn) , please?
>5

Could you do the same for CC(C)n1nnc2cc(-c3noc(C4CCCCC4)n3)ccc21 , please?
<5

Could you do the same for COc1ccccc1-c1noc(-c2ccc3[nH]cnc3c2)n1 , please?
<5

Could you do the same for COc1ncccc1-c1nc(-c2ccc3c(c2)nnn3C(C)C)no1 , please?
>5

Could you do the same for Cc1ccccc1-c1noc(-c2ccc3c(cnn3C(C)C)c2)n1 , please?
>5

Could you do the same for Cc1cc(C)cc(-c2noc(-c3ccc4c(c3)nnn4C3CCCCC3)n2)c1 , please?
<5

Could you do the same for COc1ccccc1-c1nnc(-c2ccc3[nH]oc(=O)c3c2)o1 , please?
<5

Could you do the same for Cc1ccncc1-c1noc(-c2ccc3c(c2)nnn3CC(C)(C)O)n1 , please?
<5

Could you do the same for CC(C)Nc1ccc(-c2nnc(-c3ccc4oc(=O)[nH]c4c3)o2)cc1C#N , please?
>5

Could you do the same for CC1(C)CCC2(CC1)CC(=O)c1cc(-c3nc(-c4cccnc4)no3)ccc1O2 , please?
<5

Could you do the same for COc1ccccc1-c1nnc(-c2ccc3[nH]c(=O)oc3c2)o1 , please?
<5

Could you do the same for CCC1(CC)CC(=O)c2cc(-c3nc(-c4ccccc4OC)ns3)ccc2O1 , please?
<5

Could you do the same for CCC1(CC)CC(=O)c2cc(-c3nc(-c4ccn[nH]4)no3)ccc2O1 , please?
<5

Could you do the same for COc1ccccc1-c1nc(-c2ccc3c(ccn3C(C)C)c2)ns1 , please?
>5

Could you do the same for COc1ccc(-c2coc(-c3ccc4c(c3)nnn4C(C)C)n2)cc1 , please?
<5

Could you do the same for CCC1(CC)CC(=O)c2cc(-c3nc(-c4cncc(C(F)(F)F)c4)no3)ccc2O1 , please?
>5

----------
Biological target: human sphingosine-1-phosphate receptor 1 (S1P1) (Homo sapiens (Human), UniProt P21453)
Assay: Inhibition of cAMP production (HTRF cAMP HiRange), S1P1 CHO-K1 cells
Assay type: cell-based
Details: inhibition of cAMP production, S1P1 CHO-K1 cells
Sequence (P21453 whole entry, looked up): as the sequence (P21453 whole entry, looked up) above
Please provide measured hS1P1 cAMP pEC50 for the entries that follow.

Sample CC(C)n1ccc2cc(-c3noc(-c4ccncc4F)n3)ccc21 — what was its hS1P1 cAMP pEC50?
>6.5

Could you do the same for CC(C)n1nnc2cc(-c3nc(-c4ccc(Oc5ccccc5)cc4)no3)ccc21 , please?
<6.5

Could you do the same for OCCCn1nnc2cc(-c3noc(-c4ccccc4Br)n3)ccc21 , please?
<6.5

----------
Please provide measured hS1P5 cAMP pEC50 for the entries that follow.
Target: sphingosine-1-phosphate receptor 5 (S1P5) (Homo sapiens (Human), UniProt Q9H228)
Sequence (Q9H228 whole entry): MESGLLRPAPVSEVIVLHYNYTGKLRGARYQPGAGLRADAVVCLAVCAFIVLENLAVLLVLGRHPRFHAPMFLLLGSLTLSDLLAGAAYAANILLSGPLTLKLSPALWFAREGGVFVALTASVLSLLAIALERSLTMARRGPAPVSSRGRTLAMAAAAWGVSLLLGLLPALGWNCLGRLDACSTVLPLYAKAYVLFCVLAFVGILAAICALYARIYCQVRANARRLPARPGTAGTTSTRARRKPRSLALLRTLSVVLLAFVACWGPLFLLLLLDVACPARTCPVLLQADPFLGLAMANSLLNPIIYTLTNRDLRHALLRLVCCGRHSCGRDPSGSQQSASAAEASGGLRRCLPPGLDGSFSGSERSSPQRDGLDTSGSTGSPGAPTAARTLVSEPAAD
Test: Inhibition of cAMP production (HTRF), S1P5 CHO-K1 cells
Type: cell-based
Details: inhibition of cAMP production, hS1P5

Sample CCC1(CC)CC(=O)c2cc(-c3nc(-c4ccncc4OC)no3)ccc2O1 — what was its hS1P5 cAMP pEC50?
<5.0

Could you do the same for C=CCNc1ccc(-c2nc(-c3ccc4[nH]cnc4c3)no2)cc1C#N , please?
>5.0

Could you do the same for Cc1ccccc1-c1nc(-c2ccc3c(c2)nnn3C(C)C)no1 , please?
<5.0

Could you do the same for C=CCNc1ccc(-c2nc(-c3ccc4[nH]ncc4c3)no2)cc1C#N , please?
>5.0

Could you do the same for CCC1(CC)CC(=O)c2cc(-c3nc(-c4cccnc4)no3)ccc2O1 , please?
<5.0

Could you do the same for CCC1(CC)CC(=O)c2cc(-c3nc(-c4ccnc(O)c4)no3)ccc2O1 , please?
<5.0

Could you do the same for COc1ccccc1-c1nc(-c2ccc3c(c2)nnn3C(C)C)no1 , please?
<5.0

Could you do the same for COc1ccccc1-c1nnc(-c2ccc3c(c2)oc(=O)n3C)o1 , please?
<5.0

Could you do the same for COc1cnccc1-c1nc(-c2ccc3c(ccn3C(C)C)c2)no1 , please?
>5.0

Could you do the same for CC(C)n1nnc2cc(-c3nc4c(o3)Cc3ccccc3-4)ccc21 , please?
<5.0

----------
Molecular target: human sphingosine-1-phosphate receptor 1 (S1P1) (Homo sapiens (Human))
Test: β-Arrestin2 recruitment assay (PathHunter), S1P1 CHO-K1 cells
Format: cell-based
Details: CHO-K1; efficacy (SPAN) normalized to fingolimod; read-out: hS1P1 B-arrestin2 SPAN
Please provide measured Emax for the entries that follow.

Sample CC(C)n1nnc2cc(-c3nc4c(o3)CCc3sccc3-4)ccc21 — what was its Emax?
> 75%

Could you do the same for Cc1ccccc1-c1noc(-c2ccc3c(c2)nnn3CC(C)(C)O)n1 , please?
> 75%

Could you do the same for COC(=O)C12C3C4C1C1C2C3C41c1nc(-c2ccc3c(c2)nnn3C(C)C)no1 (stereo not drawn) , please?
< 75%

Could you do the same for CCC1(CC)CC(=O)c2cc(-c3nc(-c4ccc(NC(C)=O)cc4)no3)ccc2O1 , please?
> 75%

Could you do the same for CC(C)(O)Cn1nnc2cc(-c3nc(-c4cocn4)no3)ccc21 , please?
< 75%

Could you do the same for COc1ccccc1-c1coc(-c2ccc3c(c2)nnn3C(C)C)n1 , please?
> 75%

Could you do the same for CC(C)n1nnc2cc(-c3nc(-c4ccc5nc[nH]c5c4)no3)ccc21 , please?
> 75%

Could you do the same for CC(C)n1nnc2cc(-c3nc4c(Br)cccc4o3)ccc21 , please?
> 75%

Could you do the same for Cc1cc(-c2nc(-c3ccc4c(c3)nnn4C(C)C)no2)cc(C)n1 , please?
> 75%

Could you do the same for COc1cc(C)c(-c2noc(-c3ccc4c(c3)nnn4C(C)C)n2)c(OC)c1 , please?
< 75%

Could you do the same for CCC1(CC)CC(=O)c2cc(-c3nc(-c4cccc(OC)c4)no3)ccc2O1 , please?
< 75%

Could you do the same for CC(C)n1ncc2cc(-c3nc(-c4ccccc4Cl)no3)ccc21 , please?
> 75%

Could you do the same for CC(C)n1nnc2cc(-c3noc(-c4ccc(COc5ccccc5)cc4)n3)ccc21 , please?
< 75%

Could you do the same for CCn1nnc2cc(-c3noc(-c4ccccc4Br)n3)ccc21 , please?
< 75%

Could you do the same for Brc1ccccc1-c1noc(-c2ccc3[nH]nnc3c2)n1 , please?
< 75%

Could you do the same for C=CCNc1ccc(-c2nc(-c3ccc4[nH]ncc4c3)no2)cc1C#N , please?
> 75%

Could you do the same for CC(C)n1ccc2cc(-c3nc(-c4ccccc4C(F)(F)F)cs3)ccc21 , please?
< 75%

Could you do the same for CC(C)n1nnc2cc(-c3nc4c(ccc5sccc54)o3)ccc21 , please?
> 75%

Could you do the same for C=CCNc1ccc(-c2nc(-c3ccc4[nH]cnc4c3)no2)cc1C#N , please?
> 75%

Could you do the same for Cc1ccncc1-c1noc(-c2ccc3c(c2)nnn3C2CC2)n1 , please?
> 75%

Could you do the same for CCC1(CC)CC(=O)c2cc(-c3nnc(-c4ccccc4OC)s3)ccc2O1 , please?
< 75%

Could you do the same for Clc1ncccc1-c1noc(-c2ccc3c(c2)nnn3C2CCCC2)n1 , please?
< 75%

Could you do the same for Cc1ccccc1-c1nc(-c2ccc3c(c2)nnn3CC(C)(C)O)no1 , please?
> 75%

Could you do the same for CCc1ncc(-c2noc(-c3ccc4c(c3)nnn4C(C)C)n2)cn1 , please?
< 75%
